Source: PubChem BioAssay (Tox21)

- assay_explanation: qHTS RealTime-Glo MT Cell Viability Assay in HEK293 cells - 40 hour (AID 1224874); also: % is scaled to controls: 0 for no effect and ±100 for the full control effect; nearly all actives have a fitted effect of over 50% in size
- measurement_setup: RealTime-Glo luminescence; stronger effect = lower value
Records with an inconclusive call do not appear.
Entries annotated with measured max response

compound | max response (%)
CCCCCCCCCCCSCC(=O)O | 2.44
O=C(O)CCC(=O)c1ccc(-c2ccccc2)cc1 | 0.573
CC1=C2[C@@H]([C@H](C)CC[C@H]2/C=C(\C)C(=O)O)[C@H](O)C1 | -2.63
Oc1cccc2[nH]ccc12 | 12.2
CC(CO)(CO)C(=O)O | 0.0251
Cc1oc(=O)oc1COC(=O)[C@@H]1N2C(=O)[C@@H](NC(=O)[C@H](N)c3ccccc3)[C@H]2SC1(C)C | 6.21
COc1cc(NC(C)CCCN)c2ncccc2c1 (stereo not drawn) | -12.5
Nc1ccc(S(=O)(=O)NCc2ccccc2)cc1 | -2.82
CC(C)C(=O)OCCOc1ccccc1 | 2.62
CCc1ccc(C)cc1 | 11.4
Cc1cccc(C)c1NC(=O)c1cc(S(N)(=O)=O)c(Cl)cc1O | 1.94
CC(C)(C)C(O)/C=C/c1ccc2c(c1)OCO2 (stereo not drawn) | 1.57
CC1=CC[C@@]23C[C@@H]1C(C)(C)[C@@H]2CC[C@H]3C | 1.49

---

- assay_explanation: qHTS assay to test for compound auto fluorescence at 590 nm (red) in HEK293 cell free culture (AID 720683); also: % is scaled to controls: 0 for no effect and ±100 for the full control effect
- measurement_setup: cell-free medium autofluorescence, Ex540/Em590 red; series mostly up to 91.3 µM
The source made the active and inactive calls. Calls come from the whole dose curve; as a rule, active = well fitted curve in the direction sought with a large enough effect in the repeat runs; inconclusive = weak or mixed curves; inactive = flat fitted curve, though single readings scatter.
measured_attribute: fluorescence, % of fluorescent control

molecule | obs_value
CCN(Cc1cccc(S(=O)(=O)O)c1)c1ccc(C(=C2C=CC(=[N+](CC)Cc3cccc(S(=O)(=O)O)c3)C=C2)c2ccccc2S(=O)(=O)[O-])cc1 | inactive
O=C(NC(Cc1cc(=O)[nH]c2ccccc12)C(=O)O)c1ccc(Cl)cc1 (stereo not given) | inactive
CCCCCCCCCCCC(=O)OCC(O)CO (stereo not given) | inactive
Cc1cc(CCC(=O)OCCOCCOCCOC(=O)CCc2cc(C)c(O)c(C(C)(C)C)c2)cc(C(C)(C)C)c1O | inactive
FC(F)(F)C(F)(F)C(F)(F)C(F)(F)CCI | inactive

---

- assay_explanation: qHTS assay to identify small molecule antagonists of the vitamin D receptor (VDR) signaling pathway - cell viability counter screen (AID 743225); also: % is scaled to controls: 0 for no effect and ±100 for the full control effect; nearly all actives have a fitted effect of over 50% in size
- measurement_setup: VDR-bla HEK293T viability, CellTiter-Glo luminescence, 16 h; series mostly up to 61 µM
Records with an inconclusive call do not appear. The source made the active and inactive calls. Calls follow the shape of the dose curve; as a rule, active = well fitted cell-killing curve with a large enough effect in the repeat runs; inconclusive = weak or mixed curves, or effect the other way; inactive = no such curve, though single readings can be large or run the other way.

compound | outcome
O=C(O)CCS | inactive
CCCCOCCOC(=O)c1cccnc1 | inactive
O=S(=O)(Cl)c1c(Cl)cccc1Cl | inactive
CC(C)C(=O)OCCOc1ccccc1 | inactive
COC(=O)c1sccc1S(N)(=O)=O | inactive
Cc1ccc(NC(=O)N(C)C)cc1NC(=O)N(C)C | inactive
CCCCCCCCCCCCCCCCCC(=O)OCC(CC)CCCC (stereo not drawn) | inactive
Oc1cccc2[nH]ccc12 | inactive
CC(C(=O)O)c1ccc(C(=O)c2cccs2)cc1 (stereo not drawn) | inactive
O=c1[nH]c2cc(C(F)(F)F)c(N3CCOCC3)cc2n(CP(=O)(O)O)c1=O | inactive
CC1=C2[C@@H]([C@H](C)CC[C@H]2/C=C(\C)C(=O)O)[C@H](O)C1 | inactive
CC(C)(C)S | inactive
CC(C)C1CCC(C(=O)N[C@H](Cc2ccccc2)C(=O)O)CC1 (stereo partly drawn) | inactive

---

- subject_of_test: Estrogen receptor (Homo sapiens) (UniProt P03372)
- Sequence (P03372 whole entry, looked up): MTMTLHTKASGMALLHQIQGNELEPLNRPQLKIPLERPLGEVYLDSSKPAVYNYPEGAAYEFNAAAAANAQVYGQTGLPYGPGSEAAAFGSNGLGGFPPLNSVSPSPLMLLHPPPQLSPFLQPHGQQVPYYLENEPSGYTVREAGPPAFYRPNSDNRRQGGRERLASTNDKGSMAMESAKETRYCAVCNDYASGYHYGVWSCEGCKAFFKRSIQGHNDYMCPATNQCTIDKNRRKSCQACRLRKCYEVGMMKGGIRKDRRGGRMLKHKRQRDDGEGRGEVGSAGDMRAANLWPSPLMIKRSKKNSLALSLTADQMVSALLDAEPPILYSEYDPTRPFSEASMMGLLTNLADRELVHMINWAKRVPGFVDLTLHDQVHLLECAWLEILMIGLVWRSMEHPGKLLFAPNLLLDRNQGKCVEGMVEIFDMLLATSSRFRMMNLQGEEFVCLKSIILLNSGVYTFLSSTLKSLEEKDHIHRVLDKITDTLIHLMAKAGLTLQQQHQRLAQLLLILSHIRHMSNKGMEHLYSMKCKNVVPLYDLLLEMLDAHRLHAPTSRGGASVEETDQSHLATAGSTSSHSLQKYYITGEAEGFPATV
- assay_explanation: qHTS assay to identify small molecule agonists of the estrogen receptor alpha (ER-alpha) signaling pathway using the BG1 cell line (AID 743079); also: nearly all actives have a fitted effect of over 20% in size; as to activation: % is scaled to controls: 0 for no effect and ±100 for the full control effect
- measurement_setup: BG1Luc4E2 cells, ERE-luciferase agonist, 22 h; series mostly up to 70.3 µM
Records with an inconclusive call do not appear. Calls of active or inactive are those of the source. Calls come from the whole dose curve; as a rule, active = well fitted activation curve with a large enough effect in the repeat runs; inconclusive = weak or mixed curves, or effect the other way; inactive = no such curve, though single readings can be large or run the other way.
Outcome codes: 1 (active), -1 (inactive)

compound | assigned_category
N[C@@H](Cc1cc(I)c(O)c(I)c1)C(=O)O | -1
CC(=O)Oc1cccc(O)c1 | -1
O=C(Nc1ccc(C(=O)O)c(O)c1)c1ccccc1 | -1
CC(=O)OCCC(C)CC(C)(C)C (stereo not given) | -1
CCC(CO)(CO)CO | -1
COc1ccc2nc(S(=O)Cc3ncc(C)c(OC)c3C)[nH]c2c1 (stereo not given) | -1
CCSC(=O)N(CC)CC | -1
O=C(c1ccccc1)c1ccc(O)cc1 | 1
COc1ccc(-n2nc(C(F)F)cc2-c2ccc(S(C)=O)cc2)cc1 (stereo not given) | -1
CC(C)C(=O)OCCOc1ccccc1 | -1
O=C(CCS)OCC(COC(=O)CCS)(COC(=O)CCS)COC(=O)CCS | -1
O=C(O)CNC(=O)c1ccccc1I | -1
CNc1c2c(nn1C)CCCC2 | -1
c1ccc2sc(SSc3nc4ccccc4s3)nc2c1 | -1
CCOC(=O)C(C)O (stereo not given) | -1
Nc1c(Cl)cc(Cl)cc1[N+](=O)[O-] | -1
CC(=O)c1ccc[nH]1 | -1
Cc1ccc2c(c1)CCCN2 | -1
CN=C(N)NC(=O)Nc1c(C)cccc1C | -1
CC12CC3CC(C)(C1)CC(N)(C3)C2 | -1
Cc1ccc2c(c1[N+](=O)[O-])C(=O)c1ccccc1C2=O | 1
CC(C)OC(=O)c1ccccc1C(=O)OC(C)C | -1
OCC(CO)n1cnc(-c2ccc(F)cc2)c1-c1ccnc(Oc2ccccc2)n1 | -1
COC(=O)CC(C(C)=O)C(=O)OC (stereo not given) | -1
O=C(NC(Cc1cc(=O)[nH]c2ccccc12)C(=O)O)c1ccc(Cl)cc1 (stereo not given) | -1

---

- assay_explanation: qHTS assay to identify small molecule agonists of the NFkB signaling pathway - cell viability counter screen (AID 1159515); also: % is scaled to controls: 0 for no effect and ±100 for the full control effect; nearly all actives have a fitted effect of over 55% in size
- measurement_setup: NFkB-bla ME-180 viability, CellTiter-Glo luminescence, 5 h; series mostly up to 61 µM
Inconclusive results are not listed. Calls of active or inactive are those of the source. The call rests on the fitted dose curve.

compound_smiles | outcome
CNCc1ccc(NC(=O)c2c[nH]c3c2C(=O)CCC3)cc1 | inactive
COc1cc(S(=O)(=O)Nc2ccccc2)c(OC)cc1N | inactive
Cc1ccc(Cl)cc1N | inactive
OCC(CO)n1cnc(-c2ccc(F)cc2)c1-c1ccnc(Oc2ccccc2)n1 | inactive
C=CCOC(=O)COCCC(C)C | inactive
CC[C@H]1OC(=O)[C@H](C)[C@@H](O[C@H]2C[C@@](C)(OC)[C@@H](O)[C@H](C)O2)[C@H](C)[C@@H](O[C@@H]2O[C@H](C)C[C@H](N(C)C)[C@H]2O)[C@](C)(O)C[C@@H](C)CN(C)[C@H](C)[C@@H](O)[C@]1(C)O | inactive
CC(C)Cc1ccc(CC(=O)O)cc1 | inactive
CC(C)(C)S | inactive
CC(=O)C(C)=O | inactive
NC(=O)CCCCC(N)=O | inactive
COc1ccc(-c2cc(C(F)F)nn2-c2ccc(S(N)(=O)=O)cc2)cc1F | inactive

---

- assay_explanation: qHTS assay to identify small molecule agonists of the hypoxia (HIF-1) signaling pathway - cell viability counter screen (AID 1224844); also: nearly all actives have a fitted effect of over 50% in size
- measurement_setup: HRE-bla ME-180 viability, CellTiter-Glo luminescence, 17 h; series mostly up to 76.8 µM
Records with an inconclusive call do not appear. The source made the active and inactive calls. Calls come from the whole dose curve.
Outcome codes: 1.0 = active, 0.0 = inactive

compound | assigned_category
COc1ccc(C(=O)NCc2ccc(OCCN(C)C)cc2)cc1OC | 0.0
O=C(C(=O)c1ccco1)c1ccco1 | 0.0
CC1CCCO1 (centres undefined) | 0.0
O=C1c2ccccc2C(=O)c2c(O)ccc(O)c21 | 0.0
N[C@@H](Cc1cc(I)c(O)c(I)c1)C(=O)O | 0.0
O=C(O)CN1C(=O)c2cccc3cccc(c23)C1=O | 0.0
CCCC(=O)OC(=O)CCC | 0.0
CC(=O)C(C)=O | 0.0
CC(=O)OCCC1CCCCC1 | 0.0
CCCc1nc2c(C)cc(-c3nc4ccccc4n3C)cc2n1Cc1ccc(-c2ccccc2C(=O)O)cc1 | 0.0
Nc1c(Cl)cc(Cl)cc1[N+](=O)[O-] | 0.0
O=C1NC(=O)c2cccc3cccc1c23 | 0.0
COc1cc(NC(C)CCCN)c2ncccc2c1 (centres undefined) | 0.0
COC(=O)c1sccc1S(N)(=O)=O | 0.0
O=S(=O)(O)CO | 0.0
CC(C)(O)c1coc(S(=O)(=O)NC(=O)Nc2c3c(cc4c2CCC4)CCC3)c1 | 0.0
O=C(O)CCC(=O)c1ccc(-c2ccccc2)cc1 | 0.0
C[C@H](CS)C(=O)N1CCC[C@H]1C(=O)O | 0.0
CNS(=O)(=O)c1cc(C(=O)N2CCC(CCN3C4CCC3CC(n3c(C)nc5ccccc53)C4)(c3cccc(F)c3)CC2)c(Cl)cc1F (centres undefined) | 1.0
CCC(=O)OCc1ccc(OC)cc1 | 0.0
C=Cc1ccc(OC(C)=O)cc1 | 0.0
COc1cc(NCc2ccc3nc(N)nc(N)c3c2C)cc(OC)c1OC | 0.0
O=C(O)c1ccc(O)cc1O | 0.0
O=CNNC=O | 0.0
CCCCC(CC)COS(=O)(=O)O (centres undefined) | 0.0
NC(=O)CCCCC(N)=O | 0.0
COc1cc(S(=O)(=O)Nc2ccccc2)c(OC)cc1N | 0.0
Cc1cccc(C)c1NC(=O)c1cc(S(N)(=O)=O)c(Cl)cc1O | 0.0
CCOC(=O)Oc1ccc(CCNC(=O)[C@H](CCSC)NC(C)=O)cc1OC(=O)OCC | 0.0
